Here's what we have: IC50 numbers for human MMP14 (Homo sapiens (Human)).
Provide only the numeric value, understood in nM.

In: Which IC50 is listed for C[C@H]1CN(C(=O)CCC2(c3cocn3)NC(=O)NC2=O)CCN1c1cc(F)cc(Cl)c1 (some centres unmarked) [compound 388] ?
Out: 549

In: Try this compound next: CC(CC1(C)NC(=O)NC1=O)C(=O)N1CCN(c2cccc(-c3cn[nH]c3)c2)[C@@H](C)C1 (some centres unmarked) [compound 371]
Out: 682

In: Queued: CC(CC1(C2CC2)NC(=O)NC1=O)C(=O)N1CCN(c2cccnc2)[C@@H](C)C1 (some centres unmarked) [compound 351]
Out: 3840

In: Entry to check: Cc1nc(C2(CCC(=O)N3CCN(c4cc(F)cc(F)c4)[C@@H](C)C3)NC(=O)NC2=O)c(C)o1 (some centres unmarked) [compound 396]
Out: 7
